System: BT-549 breast
assay info: NCI tumour cell line growth inhibition, 48 h; in the data active means GI50 below about 0.43 µM; inactive means the rest
Outcome codes: active, inactive

# compound, class label
records = [
    ("COc1ccc(-n2cc(-c3cc(OC)c(OC)c(OC)c3)c(C(=O)C(F)(F)F)c2C)cc1", "inactive"),
    ("N#CC(=C1C=CC(=NO)C=C1)c1ccccc1", "inactive"),
    ("O=C(OC(CNc1cc(=O)n(Cc2ccccc2)c(=O)n1Cc1ccccc1)CN1CCCC1)c1ccccc1 (stereo unspecified)", "inactive"),
    ("CCn1c(-c2nonc2N)nc2c(C#CC(C)(C)O)nc(OC[C@H](N)c3ccccc3)cc21", "inactive"),
    ("CCN(CC)c1ccc2c(c1)OC(N)=C(C#N)C2c1cc(OC)c2c(c1)OCO2 (stereo unspecified)", "active"),
    ("O=C1NC(=O)C(c2cnc3ccccn23)=C1c1cn2c3c(cc(F)cc13)CN(C(=O)N1CCCCC1)CC2", "inactive"),
    ("CCN1CCN(C(c2ccc(C(F)(F)F)cc2)c2ccc3cccnc3c2O)CC1 (stereo unspecified)", "inactive"),
    ("Cc1cc(I)cc(CN(C)CCCN2CCCCCCC2)c1O", "inactive"),
    ("CCC(C)n1ncn(-c2ccc(N3CCN(c4ccc(OCC5COC(Cn6cncn6)(c6ccc(Cl)cc6Cl)O5)cc4)CC3)cc2)c1=O (stereo unspecified)", "inactive"),
    ("O=C(Cc1ccc(/C=C/C(=O)c2ncc[nH]2)cc1)Nc1cc(F)c(F)c(F)c1", "inactive"),
    ("COc1ccc(CN2C(=O)/C(=C\\C(=O)c3ccc(OCCN4CCCCC4)cc3)c3ccccc32)cc1", "inactive"),
]

* * *

System: SF-295 CNS
assay info: NCI tumour cell line growth inhibition, 48 h
Below: a set of entries, each annotated with reported TGI.
readout name: TGI (µM)

# compound, readout name, op, meas value
data = [
    ("C=C1C(=O)O[C@@H]2C[C@@H]1CC/C(C)=C/CC/C(C)=C/CC[C@@]2(C)O", "TGI", "=", 32.2),
    ("S=C1NC2(CCCCCC2)NN1c1ccccc1", "TGI", ">", 100),
    ("O=Cc1cn(CCCCCCCCCCCCn2cc(C=O)c3ccccc32)c2ccccc12", "TGI", ">", 100),
    ("Clc1nc2ccccc2nc1CI", "TGI", "=", 44.9),
    ("Cc1cc(C)n2nc3nc(N)c(C#N)c(-c4ccccc4)c3c2n1", "TGI", ">", 100),
    ("CCOC(=O)CCCn1c(SC)nc2[nH]cc(-c3ccccc3)c2c1=O", "TGI", "=", 34.2),
    ("C=C(CNCc1ccccc1)c1ccc(C(=O)Nc2ccccc2N)cc1", "TGI", "=", 37),
    ("CC(C)(C)[Si](OC1CC(n2cnc3c(N)ncnc32)OC1CO)(c1ccccc1)c1ccccc1 (stereo unspecified)", "TGI", "=", 30.5),
    ("FC(F)(F)c1ccc(N=C/C=C(/Nc2ccc(C(F)(F)F)cc2)c2ccc(Cl)cc2)cc1", "TGI", "=", 36.1),
    ("CC(C)c1ccc2c(c1)CC[C@@H]1[C@@](C)(C(=O)O)CCC[C@]21C", "TGI", "=", 17.1),
    ("CN(C)c1ccc(C(C=C2c3ccccc3Sc3ccccc32)=C(C#N)C#N)cc1", "TGI", ">", 100),
]
